# METHOD DESCRIPTION: administration of 500 mg/kg to mice (lethality)
# Format: in vivo
# SETTINGS: mouse, in vivo
ATTRIBUTE MEASURED: LD50

// query Param item = `CC(C)(O/N=C(\C(=O)N[C@@H]1C(=O)N2C(C(=O)[O-])=C(CSc3cc[n+](CC(N)=O)cc3)CS[C@H]12)c1csc(N)n1)C(=O)O` ; retrieve measured LD50.
// result > 500 mg/kg

// query Lookup `NC(=O)C[n+]1ccc(SCC2=C(C(=O)[O-])N3C(=O)[C@@H](NC(=O)/C(=N\OC4(C(=O)O)CCC4)c4csc(N)n4)[C@H]3SC2)cc1`
// result > 500 mg/kg
